I'd appreciate it if you could supply MIC values for the items below.
system: Proteus vulgaris; experiment: Antibacterial activity against Proteus vulgaris; type: functional

Notebook: Cl.Nc1c(C(F)(F)F)n[nH]c1-c1ccccc1 , MIC read as > 250 µg/mL

Notebook: CS(=O)(=O)c1ccc(-n2nc(C(F)(F)F)c(N=O)c2-c2ccccc2)cc1 , MIC read as > 250 µg/mL

Notebook: O=Nc1c(C(F)(F)F)n[nH]c1-c1cccs1 , MIC read as 31.2 µg/mL

Notebook: Cn1nc(C(F)(F)F)c(N=O)c1-c1ccccc1 , MIC read as > 500 µg/mL

Notebook: Cl.Cn1nc(C(F)(F)F)c(N)c1-c1cccs1 , MIC read as > 250 µg/mL

Notebook: O/N=C1\C(c2ccccc2)=NN(c2ccccc2)C1(O)C(F)(F)F (configuration not stated) , MIC read as > 250 µg/mL

Notebook: O=Nc1c(C(F)(F)F)n[nH]c1-c1ccccc1 , MIC read as 31.2 µg/mL

====

system: NHDF; experiment: Cytotoxicity against HDF cells; type: cell-based, Homo sapiens; settings: Homo sapiens, NHDF; read-out: IC50
value-type: pIC50
Recall that pIC50 is obtained by taking minus log10 of the concentration measured in molar.

Notebook: CC[C@@]1(O)C(=O)OCc2c1cc1n(c2=O)Cc2cc3ccccc3nc2-1 [CAMPTOTHECIN] , pIC50 read as 5.27

Notebook: Cc1ccc(C2=NN(c3ccc(S(N)(=O)=O)cc3)C(O)(C(F)(F)F)/C2=N/O)cc1 (stereo not given) , pIC50 read as 4.00

Notebook: O=Nc1c(C(F)(F)F)n[nH]c1-c1ccccc1 , pIC50 read as 5.85

Notebook: Cn1nc(C(F)(F)F)c(N=O)c1-c1ccccc1 , pIC50 read as 4.31

Notebook: COc1cccc2c1C(=O)c1c(O)c3c(c(O)c1C2=O)C[C@@](O)(C(=O)CO)C[C@@H]3O[C@H]1C[C@H](N)[C@H](O)[C@H](C)O1 [DOXORUBICIN] , pIC50 read as 5.57

====

assay: Antioxidant activity assessed as trolox equivalent of ABTS radical scavenging activity measured after 1 hr by UV-vis spectrophotometric method; type: functional
Activity calls are given as the source filed them. The rule behind the calls is not given here.
value-type: Activity

As a guide, the following entries are already answered.
INSERT INTO assay_data (molecule, result_value) VALUES
  ('Cl.Cn1nc(C(F)(F)F)c(N)c1-c1cccs1', '0.1 equiv'),
  ('O=Nc1c(C(F)(F)F)n[nH]c1-c1cccs1', '0.02 equiv'),
  ('Cn1nc(C(F)(F)F)c(N=O)c1-c1ccccc1', '0.01 equiv'),
  ('Cn1nc(C(F)(F)F)c(N=O)c1-c1ccco1', '0.02 equiv'),
  ('Cc1ccc(-c2[nH]nc(C(F)(F)F)c2N)cc1', '1.43 equiv');

Notebook: Cc1[nH]nc(C(F)(F)F)c1N=O , Activity read as inactive

Notebook: CS(=O)(=O)c1ccc(-n2nc(C(F)(F)F)c(N)c2-c2ccccc2)cc1.Cl , Activity read as inactive

Notebook: Cc1ccc(-c2[nH]nc(C(F)(F)F)c2N=O)cc1 , Activity read as 0.02 equiv

Notebook: CS(=O)(=O)c1ccc(N2N=C(c3ccccc3)/C(=N\O)C2(O)C(F)(F)F)cc1 (stereo unspecified) , Activity read as 0.16 equiv

Notebook: Cc1c(C)c2c(c(C)c1O)CCC(C)(C(=O)O)O2 (stereo unspecified) , Activity read as 1 equiv

Notebook: O=Nc1c(C(F)(F)F)n[nH]c1-c1ccco1 , Activity read as 0.02 equiv

Notebook: O=Nc1c(C(F)(F)F)n[nH]c1-c1ccccc1 , Activity read as inactive

====

assay: Drug metabolism assessed as nitric oxide release in absence of rat plasma by Griess reagent based assay; format: cell-free
value-type: Drug metabolism

INSERT INTO assay_data (smiles_representation, result_value) VALUES
  ('Cn1nc(C(F)(F)F)c(N=O)c1-c1ccccc1', 'Metabolite not detected'),
  ('Cn1nc(C(F)(F)F)c(N=O)c1-c1cccs1', 'Metabolite not detected'),
  ('O=Nc1c(C(F)(F)F)n[nH]c1-c1cccs1', 'Metabolite not detected');

====

tested on: Trichophyton violaceum; test: Antifungal activity against Trichophyton violaceum; format: functional
I'd appreciate it if you could supply MIC values for the items below.
Note: unit µg/mL is implicit; provide only the numeric part.

Notebook: Cl.Cn1nc(C(F)(F)F)c(N)c1-c1ccccc1 , MIC read as 200

Notebook: CCC(C)n1ncn(-c2ccc(N3CCN(c4ccc(OCC5COC(Cn6cncn6)(c6ccc(Cl)cc6Cl)O5)cc4)CC3)cc2)c1=O (stereo not drawn) [ITRACONAZOLE] , MIC read as 0.19

Notebook: O/N=C1\C(c2ccccc2)=NN(c2ccccc2)C1(O)C(F)(F)F (stereo not drawn) , MIC read as 100

Notebook: Cn1nc(C(F)(F)F)c(N=O)c1-c1ccccc1 , MIC read as 6.25

Notebook: OC(Cn1cncn1)(Cn1cncn1)c1ccc(F)cc1F [FLUCONAZOLE] , MIC read as 100

Notebook: Cn1nc(C(F)(F)F)c(N=O)c1-c1ccco1 , MIC read as 6.25

====

tested on: Shigella flexneri; test: Antibacterial activity against Shigella flexneri; type: functional
value-type: MIC

Result for CS(=O)(=O)c1ccc(-n2nc(C(F)(F)F)c(N)c2-c2ccccc2)cc1.Cl , tested on Shigella flexneri, MIC: > 250 µg/mL

Result for Cl.Cn1nc(C(F)(F)F)c(N)c1-c1ccccc1 , tested on Shigella flexneri, MIC: > 250 µg/mL

Result for Cn1nc(C(F)(F)F)c(N=O)c1-c1ccco1 , tested on Shigella flexneri, MIC: > 500 µg/mL

Result for Cn1nc(C(F)(F)F)c(N=O)c1-c1cccs1 , tested on Shigella flexneri, MIC: > 500 µg/mL

Result for CN[C@@H]1[C@H](O)[C@H](NC)[C@H]2O[C@@]3(O)C(=O)C[C@@H](C)O[C@H]3O[C@@H]2[C@H]1O [SPECTINOMYCIN] , tested on Shigella flexneri, MIC: 7.8 µg/mL

Result for Cl.Nc1c(C(F)(F)F)n[nH]c1-c1cccs1 , tested on Shigella flexneri, MIC: > 250 µg/mL

====

I'd appreciate it if you could supply MIC values for the items below.
system: Trichophyton rubrum; experiment: Antifungal activity against Trichophyton rubrum; type: functional
# answer = value followed by unit

Notebook: Cl.Nc1c(C(F)(F)F)n[nH]c1-c1cccs1 , MIC read as 200 µg/mL

Notebook: Cc1[nH]nc(C(F)(F)F)c1N=O , MIC read as 25 µg/mL

Notebook: CCC(C)n1ncn(-c2ccc(N3CCN(c4ccc(OCC5COC(Cn6cncn6)(c6ccc(Cl)cc6Cl)O5)cc4)CC3)cc2)c1=O (stereo not given) , MIC read as 0.06 µg/mL

Notebook: Cn1nc(C(F)(F)F)c(N=O)c1-c1ccccc1 , MIC read as 12.5 µg/mL

Notebook: Cc1ccc(-c2c(N=O)c(C(F)(F)F)nn2-c2ccc(S(N)(=O)=O)cc2)cc1 , MIC read as 200 µg/mL

====

I'd appreciate it if you could supply MIC values for the items below.
system: Trichophyton rubrum; assay: Antifungal activity against Trichophyton rubrum; format: functional
Note: unit µg/mL is implicit; provide only the numeric part.

Result for O=Nc1c(C(F)(F)F)n[nH]c1-c1ccco1 , tested on Trichophyton rubrum, MIC: 12.5

Result for O/N=C1\C(c2ccccc2)=NN(c2ccccc2)C1(O)C(F)(F)F (stereo unspecified) , tested on Trichophyton rubrum, MIC: 25

Result for CS(=O)(=O)c1ccc(-n2nc(C(F)(F)F)c(N=O)c2-c2ccccc2)cc1 , tested on Trichophyton rubrum, MIC: 200

Result for Cl.Cn1nc(C(F)(F)F)c(N)c1-c1ccccc1 , tested on Trichophyton rubrum, MIC: 200

Result for Cn1nc(C(F)(F)F)c(N=O)c1-c1ccco1 , tested on Trichophyton rubrum, MIC: 12.5

Result for Cn1nc(C(F)(F)F)c(N=O)c1-c1cccs1 , tested on Trichophyton rubrum, MIC: 12.5

====

I'd appreciate it if you could supply MIC values for the items below.
tested on: Pseudomonas aeruginosa; experiment: Antibacterial activity against Pseudomonas aeruginosa; type: functional

Result for Cc1[nH]nc(C(F)(F)F)c1N=O , tested on Pseudomonas aeruginosa, MIC: 500 mg/L

Result for Cc1ccc(-c2c(N=O)c(C(F)(F)F)nn2-c2ccc(S(N)(=O)=O)cc2)cc1 , tested on Pseudomonas aeruginosa, MIC: > 250 mg/L

Result for O/N=C1\C(c2ccccc2)=NN(c2ccccc2)C1(O)C(F)(F)F (configuration not stated) , tested on Pseudomonas aeruginosa, MIC: > 250 mg/L

Result for Cl.Cn1nc(C(F)(F)F)c(N)c1-c1cccs1 , tested on Pseudomonas aeruginosa, MIC: > 250 mg/L

Result for O=Nc1c(C(F)(F)F)n[nH]c1-c1ccccc1 , tested on Pseudomonas aeruginosa, MIC: 125 mg/L

Result for Cl.Nc1c(C(F)(F)F)n[nH]c1-c1ccccc1 , tested on Pseudomonas aeruginosa, MIC: > 250 mg/L

Result for CN[C@@H]1[C@H](O)[C@H](NC)[C@H]2O[C@@]3(O)C(=O)C[C@@H](C)O[C@H]3O[C@@H]2[C@H]1O , tested on Pseudomonas aeruginosa, MIC: 2.5 mg/L

Result for Cl.Nc1c(C(F)(F)F)n[nH]c1-c1cccs1 , tested on Pseudomonas aeruginosa, MIC: > 250 mg/L

Result for Cc1ccc(-c2c(N)c(C(F)(F)F)nn2-c2ccc(S(N)(=O)=O)cc2)cc1.Cl , tested on Pseudomonas aeruginosa, MIC: > 250 mg/L

Result for O=Nc1c(C(F)(F)F)n[nH]c1-c1cccs1 , tested on Pseudomonas aeruginosa, MIC: > 500 mg/L

Result for Cl.Cn1nc(C(F)(F)F)c(N)c1-c1ccccc1 , tested on Pseudomonas aeruginosa, MIC: > 250 mg/L

Result for CS(=O)(=O)c1ccc(-n2nc(C(F)(F)F)c(N)c2-c2ccccc2)cc1.Cl , tested on Pseudomonas aeruginosa, MIC: > 250 mg/L

Result for O=Nc1c(C(F)(F)F)n[nH]c1-c1ccco1 , tested on Pseudomonas aeruginosa, MIC: > 500 mg/L

Result for Cn1nc(C(F)(F)F)c(N=O)c1-c1ccccc1 , tested on Pseudomonas aeruginosa, MIC: > 500 mg/L

Result for Cn1nc(C(F)(F)F)c(N=O)c1-c1ccco1 , tested on Pseudomonas aeruginosa, MIC: > 500 mg/L

Result for Cn1nc(C(F)(F)F)c(N=O)c1-c1cccs1 , tested on Pseudomonas aeruginosa, MIC: > 500 mg/L

Result for CS(=O)(=O)c1ccc(-n2nc(C(F)(F)F)c(N=O)c2-c2ccccc2)cc1 , tested on Pseudomonas aeruginosa, MIC: > 250 mg/L
